Test: MRT (0 to infinity) in Kunming mouse at 868.1 nmol/kg, iv measured up to 120 mins by LC-MS/MS analysis
Type: ADME, organism-based
Details: in vivo
Bridge positions count the residues as written; N and C are the ends. Square brackets hold non-standard residues; d marks the D form. Peptide text beside a SMILES is read from it. NMeF = CN[C@@H](Cc1ccccc1)C(=O)O
reported property: MRT inf
Entry format: amount then unit.

# lookup: MRT inf of CN1C(=O)CNC(=O)[C@H](NC(=O)[C@@H](N)Cc2ccc(O)cc2)CCCCNC(=O)C[C@@H](C(=O)N2CCC[C@H]2C(=O)N[C@@H](CCC(N)=O)C(=O)N[C@@H](CCCNC(=N)N)C(=O)N[C@@H](Cc2ccccc2)C(N)=O)NC(=O)[C@@H]1Cc1ccccc1 (H-Y[dK]G[NMeF]DPQRF-NH2; lactam 2-5)
5 min

###

Target: Neuropeptide FF receptor 1 (Homo sapiens)
Sequence (Q9GZQ6 whole entry): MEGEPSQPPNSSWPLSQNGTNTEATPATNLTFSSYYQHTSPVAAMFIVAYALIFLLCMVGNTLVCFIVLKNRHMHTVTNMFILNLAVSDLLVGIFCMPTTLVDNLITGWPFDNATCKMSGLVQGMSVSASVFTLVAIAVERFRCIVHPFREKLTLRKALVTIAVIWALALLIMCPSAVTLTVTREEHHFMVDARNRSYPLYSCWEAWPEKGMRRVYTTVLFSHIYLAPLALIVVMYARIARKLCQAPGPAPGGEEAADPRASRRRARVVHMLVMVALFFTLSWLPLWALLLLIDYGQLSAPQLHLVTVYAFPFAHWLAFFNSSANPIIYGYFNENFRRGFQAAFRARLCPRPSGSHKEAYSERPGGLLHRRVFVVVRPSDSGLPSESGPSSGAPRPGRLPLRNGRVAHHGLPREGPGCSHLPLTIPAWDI
Test: Agonist activity at NPFF1R (unknown origin) expressed in HEK293-A cells assessed as inhibition of forskolin-induced cAMP accumulation by measuring maximal efficacy preincubated for 30 mins in presence of 3-isobutyl-1-methylxanthine followed by forskolin and compound addition by competitive PKA binding assay relative to control
Format: functional, cell-based
Settings: filed as agonist
Bridge positions count the residues as written; N and C are the ends. Square brackets hold non-standard residues; d marks the D form. Peptide text beside a SMILES is read from it. NMeF = CN[C@@H](Cc1ccccc1)C(=O)O; dDab = NCC[C@@H](N)C(=O)O
Entries and their Emax values follow.
Entry rule: numbers only, all in %.

compound | Emax / %
CN1C(=O)CNC(=O)[C@H](NC(=O)[C@@H](N)Cc2ccc(O)cc2)CC(=O)NCCCC[C@@H](C(=O)N2CCC[C@H]2C(=O)N[C@@H](CCC(N)=O)C(=O)N[C@@H](CCCNC(=N)N)C(=O)N[C@@H](Cc2ccccc2)C(N)=O)NC(=O)[C@@H]1Cc1ccccc1 (H-Y[dD]G[NMeF]KPQRF-NH2; lactam 2-5) | 77.6

# lookup: Emax of CN1C(=O)CNC(=O)[C@H](NC(=O)[C@@H](N)Cc2ccc(O)cc2)CCNC(=O)C[C@@H](C(=O)N2CCC[C@H]2C(=O)N[C@@H](CCC(N)=O)C(=O)N[C@@H](CCCNC(=N)N)C(=O)N[C@@H](Cc2ccccc2)C(N)=O)NC(=O)[C@@H]1Cc1ccccc1 (H-Y[dDab]G[NMeF]DPQRF-NH2; lactam 2-5)
73.4

###

Test system: Mus musculus
Assay: Antinociceptive activity against Kunming mouse model of thermal-induced nociception assessed as peripheral analgesia administered subcutaneously by tail-flick test
Format: functional
Conditions: sc
Bridge positions count the residues as written; N and C are the ends. Square brackets hold non-standard residues; d marks the D form. Peptide text beside a SMILES is read from it. NMeF = CN[C@@H](Cc1ccccc1)C(=O)O
reported property: ED50

molecule | tested system | ED50
CN1C(=O)CNC(=O)[C@@H](NC(=O)[C@@H](N)Cc2ccc(O)cc2)CCCCNC(=O)C[C@@H](C(=O)N2CCC[C@H]2C(=O)N[C@@H](CCC(N)=O)C(=O)N[C@@H](CCCNC(=N)N)C(=O)N[C@@H](Cc2ccccc2)C(N)=O)NC(=O)[C@@H]1Cc1ccccc1 (H-YKG[NMeF]DPQRF-NH2; lactam 2-5) | Mus musculus | 0.022 µmol/kg
CN1C(=O)CNC(=O)[C@H](NC(=O)[C@@H](N)Cc2ccc(O)cc2)CC(=O)NCCCC[C@@H](C(=O)N2CCC[C@H]2C(=O)N[C@@H](CCC(N)=O)C(=O)N[C@@H](CCCNC(=N)N)C(=O)N[C@@H](Cc2ccccc2)C(N)=O)NC(=O)[C@@H]1Cc1ccccc1 (H-Y[dD]G[NMeF]KPQRF-NH2; lactam 2-5) | Mus musculus | 0.0137 µmol/kg

Could you now consider this next molecule?
# lookup: ED50 of CN1C(=O)CNC(=O)[C@H](NC(=O)[C@@H](N)Cc2ccc(O)cc2)CCCCNC(=O)C[C@H](C(=O)N2CCC[C@H]2C(=O)N[C@@H](CCC(N)=O)C(=O)N[C@@H](CCCNC(=N)N)C(=O)N[C@@H](Cc2ccccc2)C(N)=O)NC(=O)[C@@H]1Cc1ccccc1 (H-Y[dK]G[NMeF][dD]PQRF-NH2; lactam 2-5)
0.0201 µmol/kg

###

Biological target: Kappa-type opioid receptor (Homo sapiens)
Sequence (P41145 whole entry): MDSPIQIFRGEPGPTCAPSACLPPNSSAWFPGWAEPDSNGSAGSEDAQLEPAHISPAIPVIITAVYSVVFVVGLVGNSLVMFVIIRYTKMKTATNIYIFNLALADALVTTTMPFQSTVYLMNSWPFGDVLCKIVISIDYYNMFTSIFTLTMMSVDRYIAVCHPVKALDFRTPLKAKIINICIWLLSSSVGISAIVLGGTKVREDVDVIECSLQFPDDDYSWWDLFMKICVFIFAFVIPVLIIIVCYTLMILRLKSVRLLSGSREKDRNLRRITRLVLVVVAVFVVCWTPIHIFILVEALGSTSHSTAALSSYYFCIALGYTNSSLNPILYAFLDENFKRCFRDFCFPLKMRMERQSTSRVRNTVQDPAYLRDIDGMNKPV
Bridge positions count the residues as written; N and C are the ends. Square brackets hold non-standard residues; d marks the D form. Peptide text beside a SMILES is read from it. NMeF = CN[C@@H](Cc1ccccc1)C(=O)O; dDab = NCC[C@@H](N)C(=O)O
Entries and their EC50 values follow.
Entry format: amount then unit.

compound | tested system | EC50
CN1C(=O)CNC(=O)[C@H](NC(=O)[C@@H](N)Cc2ccc(O)cc2)CC(=O)NCCCC[C@@H](C(=O)N2CCC[C@H]2C(=O)N[C@@H](CCC(N)=O)C(=O)N[C@@H](CCCNC(=N)N)C(=O)N[C@@H](Cc2ccccc2)C(N)=O)NC(=O)[C@@H]1Cc1ccccc1 (H-Y[dD]G[NMeF]KPQRF-NH2; lactam 2-5) | Kappa-type opioid receptor (Homo sapiens) | 81.3 nM
CN1C(=O)CNC(=O)[C@H](NC(=O)[C@@H](N)Cc2ccc(O)cc2)CCCCNC(=O)C[C@@H](C(=O)N2CCC[C@H]2C(=O)N[C@@H](CCC(N)=O)C(=O)N[C@@H](CCCNC(=N)N)C(=O)N[C@@H](Cc2ccccc2)C(N)=O)NC(=O)[C@@H]1Cc1ccccc1 (H-Y[dK]G[NMeF]DPQRF-NH2; lactam 2-5) | Kappa-type opioid receptor (Homo sapiens) | 39 nM

Request: EC50, test system Kappa-type opioid receptor (Homo sapiens), entry CN1C(=O)CNC(=O)[C@H](NC(=O)[C@@H](N)Cc2ccc(O)cc2)CCNC(=O)C[C@@H](C(=O)N2CCC[C@H]2C(=O)N[C@@H](CCC(N)=O)C(=O)N[C@@H](CCCNC(=N)N)C(=O)N[C@@H](Cc2ccccc2)C(N)=O)NC(=O)[C@@H]1Cc1ccccc1 (H-Y[dDab]G[NMeF]DPQRF-NH2; lactam 2-5)
71.2 nM

###

Target: Neuropeptide FF receptor 1 (Homo sapiens)
Test: Agonist activity at NPFF1R (unknown origin) expressed in HEK293-A cells assessed as inhibition of forskolin-induced cAMP accumulation by measuring maximal efficacy preincubated for 30 mins in presence of 3-isobutyl-1-methylxanthine followed by forskolin and compound addition by competitive PKA binding assay relative to control
Assay type: functional, cell-based
Conditions: filed as agonist
Bridge positions count the residues as written; N and C are the ends. Square brackets hold non-standard residues; d marks the D form. Peptide text beside a SMILES is read from it. NMeF = CN[C@@H](Cc1ccccc1)C(=O)O; dDap = NC[C@@H](N)C(=O)O
reported property: Emax (%)
Entry rule: numbers only, all in %.

Request: Emax, test system Neuropeptide FF receptor 1 (Homo sapiens), entry CN1C(=O)CNC(=O)[C@H](NC(=O)[C@@H](N)Cc2ccc(O)cc2)CCCCNC(=O)C[C@@H](C(=O)N2CCC[C@H]2C(=O)N[C@@H](CCC(N)=O)C(=O)N[C@@H](CCCNC(=N)N)C(=O)N[C@@H](Cc2ccccc2)C(N)=O)NC(=O)[C@@H]1Cc1ccccc1 (H-Y[dK]G[NMeF]DPQRF-NH2; lactam 2-5)
73.7

Request: Emax, test system Neuropeptide FF receptor 1 (Homo sapiens), entry CN1C(=O)CNC(=O)[C@H](NC(=O)[C@@H](N)Cc2ccc(O)cc2)CCCCNC(=O)C[C@H](C(=O)N2CCC[C@H]2C(=O)N[C@@H](CCC(N)=O)C(=O)N[C@@H](CCCNC(=N)N)C(=O)N[C@@H](Cc2ccccc2)C(N)=O)NC(=O)[C@@H]1Cc1ccccc1 (H-Y[dK]G[NMeF][dD]PQRF-NH2; lactam 2-5)
75.6

Request: Emax, test system Neuropeptide FF receptor 1 (Homo sapiens), entry CN1C(=O)CNC(=O)[C@H](NC(=O)[C@@H](N)Cc2ccc(O)cc2)CNC(=O)C[C@@H](C(=O)N2CCC[C@H]2C(=O)N[C@@H](CCC(N)=O)C(=O)N[C@@H](CCCNC(=N)N)C(=O)N[C@@H](Cc2ccccc2)C(N)=O)NC(=O)[C@@H]1Cc1ccccc1 (H-Y[dDap]G[NMeF]DPQRF-NH2; lactam 2-5)
47.5

###

Experiment: Metabolic stability in mouse plasma assessed as degradation half life at 0.01 M measured up to 360 mins
Type: ADME, cell-free
Bridge positions count the residues as written; N and C are the ends. Square brackets hold non-standard residues; d marks the D form. Peptide text beside a SMILES is read from it. NMeF = CN[C@@H](Cc1ccccc1)C(=O)O; dDab = NCC[C@@H](N)C(=O)O
Entries and their half-life at 10000 µM values follow.
Entry rule: numbers only, all in min.

Examples with answers:
molecule | half-life at 10000 µM, min
CN1C(=O)CNC(=O)[C@@H](NC(=O)[C@@H](N)Cc2ccc(O)cc2)CCCCNC(=O)C[C@H](C(=O)N2CCC[C@H]2C(=O)N[C@@H](CCC(N)=O)C(=O)N[C@@H](CCCNC(=N)N)C(=O)N[C@@H](Cc2ccccc2)C(N)=O)NC(=O)[C@@H]1Cc1ccccc1 (H-YKG[NMeF][dD]PQRF-NH2; lactam 2-5) | 6.7
CN1C(=O)CNC(=O)[C@@H](NC(=O)[C@@H](N)Cc2ccc(O)cc2)CCCCNC(=O)C[C@@H](C(=O)N2CCC[C@H]2C(=O)N[C@@H](CCC(N)=O)C(=O)N[C@@H](CCCNC(=N)N)C(=O)N[C@@H](Cc2ccccc2)C(N)=O)NC(=O)[C@@H]1Cc1ccccc1 (H-YKG[NMeF]DPQRF-NH2; lactam 2-5) | 9.9

Could you now consider this next molecule?
# lookup: half-life at 10000 µM of CN1C(=O)CNC(=O)[C@H](NC(=O)[C@@H](N)Cc2ccc(O)cc2)CCNC(=O)C[C@@H](C(=O)N2CCC[C@H]2C(=O)N[C@@H](CCC(N)=O)C(=O)N[C@@H](CCCNC(=N)N)C(=O)N[C@@H](Cc2ccccc2)C(N)=O)NC(=O)[C@@H]1Cc1ccccc1 (H-Y[dDab]G[NMeF]DPQRF-NH2; lactam 2-5)
530
